Documented cell viability across a set of compounds
Tested on: Caco-2
Assay: cell viability relative to DMSO; higher = less toxic
Conditions: 72 h; 100 nM
reported endpoint: cell viability (%)

CNC(=O)c1c(-c2ccc(F)cc2)oc2cc(N(CCO)S(C)(=O)=O)c(C3CC3)cc12: 95
OC[C@H]1O[C@@H](Oc2ccc(O)cc2)[C@H](O)[C@@H](O)[C@@H]1O: 105
O=C1O[C@H]([C@@H](O)CO)C([O-])=C1O.[Na+] [sodium-ascorbate]: 98.9
CCN(CCNC(=O)Nc1ccccc1Br)c1cccc(C)c1: 93.1
O=C(O)CCCc1ccc(N(CCCl)CCCl)cc1: 98.2
Cc1nc(Nc2n[nH]c3c2CN(C(=O)N[C@H](CN(C)C)c2ccccc2)C3(C)C)c2sccc2n1: 70.6
COC(=O)/C=C/C(=O)N[C@@H]1CC[C@@]2(O)[C@H]3Cc4ccc(O)c5c4[C@@]2(CCN3CC2CC2)[C@H]1O5: 90
CCCCC(=O)O[C@]1(C(=O)CO)[C@@H](C)C[C@H]2[C@@H]3CCC4=CC(=O)C=C[C@]4(C)[C@@]3(F)[C@@H](O)C[C@@]21C [BETAMETHASONE VALERATE]: 113
CCc1ccccc1OC[C@@H](O)CN[C@H]1CCCc2ccccc21: 100
Cc1ccc(CCCO)c(NCc2ccc3nc(NCCCN4CCOCC4)n(Cc4nc(C)ccc4O)c3c2)c1: 97.6
O=C(OCC(O)CO)c1ccccc1Nc1ccnc2cc(Cl)ccc12 (stereo not drawn): 66.6
CN(C)C(=O)c1ccc(S(=O)(=O)c2ccc(NC(=O)[C@@](C)(O)C(F)(F)F)c(Cl)c2)cc1: 96.7
CCCCOc1nc(N)c2c(n1)N(Cc1cccc(CN3CCCC3)c1)CC(=O)N2: 91.4
O=c1c2ccccc2[se]n1-c1ccccc1: 107
Cc1csc(S(=O)(=O)N(CC(C)C)c2cc3c(cc2OCc2ccc(C(=O)O)cc2)CCC3)n1: 96.4
CC(C)(CC(=O)N1CCCC1)NCC(=O)N1C[C@@H](F)C[C@H]1C#N: 86.4
O=C(N[C@H](Cc1ccccc1)C(=O)O)c1sc2cc(F)ccc2c1Cl: 91.1
Fc1ccc(C(c2ccc(F)cc2)N2CCN(C/C=C/c3ccccc3)CC2)cc1: 104
